Consider the following compounds and their measured Ki readings.
# Tested on: HCV NS3/4A protease complexes (full-length hepatitis C NS3 protease enzyme with NS4A cofactor) (Hepatitis C virus genotype 1a, UniProt P27958)
# Sequence (P27958 1027-1657, other chains not shown): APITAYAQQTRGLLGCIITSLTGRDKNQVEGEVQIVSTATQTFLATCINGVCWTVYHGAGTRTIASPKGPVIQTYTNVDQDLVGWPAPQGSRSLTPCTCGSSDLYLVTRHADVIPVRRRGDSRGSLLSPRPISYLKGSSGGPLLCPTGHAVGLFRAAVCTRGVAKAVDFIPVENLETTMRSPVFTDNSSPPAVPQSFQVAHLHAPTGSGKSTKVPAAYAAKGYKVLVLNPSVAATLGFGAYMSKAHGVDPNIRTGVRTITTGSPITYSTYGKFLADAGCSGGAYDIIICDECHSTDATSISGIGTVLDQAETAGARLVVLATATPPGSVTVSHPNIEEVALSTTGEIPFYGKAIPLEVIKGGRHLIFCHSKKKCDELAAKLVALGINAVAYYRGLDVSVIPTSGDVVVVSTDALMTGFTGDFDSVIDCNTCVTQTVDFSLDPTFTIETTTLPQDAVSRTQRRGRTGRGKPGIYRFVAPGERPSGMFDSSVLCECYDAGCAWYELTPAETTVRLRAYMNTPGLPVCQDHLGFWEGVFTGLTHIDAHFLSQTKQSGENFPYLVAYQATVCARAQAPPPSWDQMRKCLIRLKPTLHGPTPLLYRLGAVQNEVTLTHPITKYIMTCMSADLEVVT
# Protocol description: Inhibition assay (enzymatic assay, depsipeptide substrate hydrolysis)
# Experimental conditions: enzyme 1 nM, 25 μM NS4A cofactor, 0.5 μM substrate, 30° C., competitive inhibition model

Q. So what's the measured Ki for this one? COc1nc(O[C@@H]2C[C@H]3C(=O)N[C@]4(C(=O)NS(=O)(=O)C5(C)CC5)C[C@H]4/C=C\CCCCCNC(=O)N3C2)cc(-c2ccccc2)n1 [Example 4]
A. 0.1 to 4.9 nM

Q. So what's the measured Ki for this one? COc1ccc(-c2cc(OC3CC4C(=O)NC5(C(=O)NS(=O)(=O)C6CC6)CC5C=CCCCCN(C)C(=O)C4C3)nc(OC)n2)cc1 (stereo not drawn) [Example 16]
A. 0.1 to 4.9 nM

Q. So what's the measured Ki for this one? COc1nc(O[C@@H]2C[C@H]3C(=O)N[C@]4(C(=O)NS(=O)(=O)C5(C)CC5)C[C@H]4/C=C\CCCCN(C)C(=O)[C@@H]3C2)cc(-c2ccccc2)n1 [Example 14]
A. 5 to 99.9 nM

Q. So what's the measured Ki for this one? COc1nc(O[C@@H]2C[C@H]3C(=O)N[C@]4(C(=O)NS(=O)(=O)C5(C)CC5)C[C@H]4/C=C\CCCCN(C)C(=O)[C@@H]3C2)cc(C(C)(C)C)n1 [Example 5]
A. 100 to 1000 nM

Q. So what's the measured Ki for this one? COc1nc(OC2CC3C(=O)NC4(C(=O)NS(=O)(=O)C5CC5)CC4C=CCCCCN(C)C(=O)N3C2)cc(-c2ccccc2)n1 (stereo not drawn) [Example 1]
A. 0.1 to 4.9 nM

Q. So what's the measured Ki for this one? COc1nc(OC2CC3C(=O)NC4(C(=O)NS(=O)(=O)C5CC5)CC4C=CCCCCN(C)C(=O)C3C2)cc(C(C)(C)C)n1 (stereo not drawn) [Example 3]
A. 5 to 99.9 nM
